// provenance: patent US8999957B2

// reported IC50 per item
Target: inactive ERK2 (unphosphorylated Mouse ERK2 protein) (Mus musculus (Mouse), UniProt P63085)
Sequence (P63085 whole entry): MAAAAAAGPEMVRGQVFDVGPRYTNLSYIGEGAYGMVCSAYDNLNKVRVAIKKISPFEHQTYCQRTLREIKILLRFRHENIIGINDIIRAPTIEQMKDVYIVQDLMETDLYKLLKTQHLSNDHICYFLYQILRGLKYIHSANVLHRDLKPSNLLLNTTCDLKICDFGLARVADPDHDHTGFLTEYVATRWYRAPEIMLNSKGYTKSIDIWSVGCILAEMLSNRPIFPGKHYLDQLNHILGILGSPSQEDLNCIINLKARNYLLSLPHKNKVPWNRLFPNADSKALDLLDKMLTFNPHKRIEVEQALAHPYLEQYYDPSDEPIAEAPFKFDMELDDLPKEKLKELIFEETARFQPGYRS
Assay: Coupled ERK2 (cERK) assay, coupled MEK1/ERK2 IMAP assay
Details: 30 μM ATP
Procedure: 14 μl of kinase buffer (10 mM Tris.HCl pH 7.2, 10 mM MgCl2, 0.01% Tween-20, 1 mM DTT) containing 0.4 ng unphosphorylated Mouse ERK2 protein was added to each well of a black 384-well assay plate. […] DMSO concentration during initial incubation is 6.7%. ERK2 activity was determined to be insensitive to DMSO concentrations up to 20%. […] Binding was allowed to equilibrate for 30 minutes before reading the plate on an LJL Analyst Fluorescence Polarization plate reader. […]
Write it as a number; the unit nM goes unstated.

Consider the worked cases shown below.
>>> test_result("CC(C)Oc1ccc(-c2n[nH]c3ccc(C(=O)N[C@@H]4CCCN(Cc5ccccc5F)C4)cc23)cn1")
124
>>> test_result("O=C(N[C@@H]1CCCN(Cc2ccccc2F)C1)c1ccc2[nH]nc(-c3ccnc(Cl)c3)c2c1")
25
>>> test_result("O=C(N[C@H]1CCCN(Cc2ccccc2)C1)c1ccc2[nH]nc(-c3ccncc3)c2c1")
304
>>> test_result("CC(C)Oc1ccc(-c2n[nH]c3ccc(C(=O)N[C@@H]4CCCN(Cc5ccccc5F)C4)cc23)cc1")
443

Which IC50 reading was recorded for the molecule O=C(NC1CCCN(Cc2ccccc2)C1)c1ccc2[nH]nc(-c3ccncc3)c2c1 (stereo not drawn) ?
16.6

Quick check: IC50 of O=C(N[C@@H]1CCCN(Cc2ccccc2F)C1)c1ccc2[nH]nc(-c3ccncc3)c2c1 ?
1.1
